The measurements presented in this section are drawn from ChEMBL document CHEMBL1201862.

# subject of test: Photoreceptor-specific nuclear receptor (Homo sapiens)
# Sequence (Q9Y5X4 whole entry): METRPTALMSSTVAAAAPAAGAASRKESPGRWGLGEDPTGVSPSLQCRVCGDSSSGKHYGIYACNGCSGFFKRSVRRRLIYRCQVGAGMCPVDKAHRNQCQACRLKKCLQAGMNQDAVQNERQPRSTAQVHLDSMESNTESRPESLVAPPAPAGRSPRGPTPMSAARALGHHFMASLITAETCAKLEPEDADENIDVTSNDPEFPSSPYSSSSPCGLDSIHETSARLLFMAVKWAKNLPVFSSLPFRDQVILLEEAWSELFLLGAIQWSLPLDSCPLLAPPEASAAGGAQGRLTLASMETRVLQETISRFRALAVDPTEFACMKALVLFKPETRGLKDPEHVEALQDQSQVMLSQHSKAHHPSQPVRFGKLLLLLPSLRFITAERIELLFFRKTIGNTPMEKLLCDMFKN
# experiment summary: NR2E3 inverse agonists, dose response, biochemical, TR-FRET (AID 463256)
# Format: functional
The source made the active and inactive calls. No stated cut-off is given here; in the data, active = IC50 of 10 µM or less and inactive = more.
# IC50 per record follows
observable: IC50

>>> result("O=C(Nc1cccc(-n2cnnn2)c1)c1cc2ccccc2o1")
"6.55 µM (active)"
>>> result("NS(=O)(=O)c1ccc(CNC(=O)c2cc(-c3ccccn3)nc3ccc(Cl)cc23)cc1")
"> 4.43 µM (active)"
>>> result("CCn1cnc2sc(C(=O)Nc3ccccc3OC)c(C)c2c1=O")
"7.11 µM (active)"
>>> result("Cc1ccc2nc(-c3cc(-c4ccccc4)no3)cn2c1")
"> 39.8 µM (not active)"
